Test system: HLA-A*24
assay_procedure: MHC binding assay, UV-ligand exchange with beta2m ELISA (exchange yield), HLA-A*24
Design: species or system human
cond: binding to HLA-A*24, UV-ligand exchange
measurement_type: Peptide exchange (MHC class I binding score, peptide exchange yield)

As a guide, the following entries are already answered.
369 (VYTHEVVTL; listed as Homo sapiens) [compound 369]    +++ (50%-75% = +++)
363 (SYAELGTTI; listed as Homo sapiens) [compound 363]    ++ (20%-49% = ++)
282 (NYLVDPVTI; listed as Homo sapiens) [compound 282]    +++ (50%-75% = +++)
245 (LYPQLFVVL; listed as Homo sapiens) [compound 245]    +++ (50%-75% = +++)

Query :: Look at this substance and give its reported Peptide exchange (MHC class I binding score, peptide exchange yield). 253 (IYGFFNENF; listed as Homo sapiens) [compound 253]
Result :: +++ (50%-75% = +++)

Query :: Also, 152 (KFFDDLGDELLF; listed as Homo sapiens) [compound 152] please.
Result :: ++ (20%-49% = ++)

Query :: Now give it for 207 (LYSDAFKFIVF; listed as Homo sapiens) [compound 207] too.
Result :: +++ (50%-75% = +++)

Query :: Also need 230 (TYGMVMVTF; listed as Homo sapiens) [compound 230] , thanks.
Result :: +++ (50%-75% = +++)

Query :: And for 383 (RYKPGEPITF; listed as Homo sapiens) [compound 383] ?
Result :: +++ (50%-75% = +++)

====

System: HLA-A*24
assay_procedure: MHC binding assay, UV-ligand exchange with beta2m ELISA (exchange yield), HLA-A*24
Design: species or system human
cond: binding to HLA-A*24, UV-ligand exchange
measurement_type: Peptide exchange (MHC class I binding score, peptide exchange yield)

Some entries whose results are on file:
122 (EYQARIPEF; listed as Homo sapiens) [compound 122]    +++ (50%-75% = +++)
251 (VYTKALSSL; listed as Homo sapiens) [compound 251]    +++ (50%-75% = +++)
280 (TYNPNLQDKL; listed as Homo sapiens) [compound 280]    ++++ (>=75% = ++++)
166 (FYTLPFHLI; listed as Homo sapiens) [compound 166]    ++++ (>=75% = ++++)

Query :: Any idea what Peptide exchange (MHC class I binding score, peptide exchange yield) was measured for 204 (EYLSTCSKL; listed as Homo sapiens) [compound 204] ?
Result :: +++ (50%-75% = +++)

====

target_or_test_system: HLA-A*02:01 (Homo sapiens, UniProt P04439, D140Y/D185E/D98H/E176V/E277Q/G131W/G231S/I119V/I121R/I166T/I218V/L300P/L318F/N151K/N90K/P208A/P217A/Q86G/Q94H/R138H/R169H/T345S)
assay_procedure: MHC binding assay, UV-ligand exchange with beta2m ELISA (exchange yield), HLA-A*02
cond: binding to HLA-A*02 ranged by peptide exchange yield
measurement_type: Peptide exchange (MHC class I binding score)

82 (VLLRVLIL; listed as Homo sapiens) [compound 82]    ++ (20%-49% = ++)
50 (EYALLYHTL; listed as Homo sapiens) [compound 50]    ++ (20%-49% = ++)
329 (FAWEPSFRDQV; listed as Homo sapiens) [compound 329]    ++ (20%-49% = ++)
88 (ILLNTEDLASL; listed as Homo sapiens) [compound 88]    +++ (50%-75% = +++)
38 (KMQEDLVTL; listed as Homo sapiens) [compound 38]    +++ (50%-75% = +++)

Query :: # Peptide exchange (MHC class I binding score) lookup, item 28 (TLYSMDLMKV; listed as Homo sapiens) [compound 28]
Result :: +++ (50%-75% = +++)

Query :: Now try 340 (SVAKTILKR; listed as Homo sapiens) [compound 340] .
Result :: ++ (20%-49% = ++)

Query :: Lookup 25 (IQADDFRTL; listed as Homo sapiens) [compound 25]
Result :: ++ (20%-49% = ++)
